tested-system: T1, Dimeric fibrinogen-like domain of human Ang-2 conjugated to human IgG1 (human)
T1 construct: also called Dimeric Human Ang-2FD; Human Ang-2FD-hFc
T1 sequence (chain, as listed by the source limits assumed): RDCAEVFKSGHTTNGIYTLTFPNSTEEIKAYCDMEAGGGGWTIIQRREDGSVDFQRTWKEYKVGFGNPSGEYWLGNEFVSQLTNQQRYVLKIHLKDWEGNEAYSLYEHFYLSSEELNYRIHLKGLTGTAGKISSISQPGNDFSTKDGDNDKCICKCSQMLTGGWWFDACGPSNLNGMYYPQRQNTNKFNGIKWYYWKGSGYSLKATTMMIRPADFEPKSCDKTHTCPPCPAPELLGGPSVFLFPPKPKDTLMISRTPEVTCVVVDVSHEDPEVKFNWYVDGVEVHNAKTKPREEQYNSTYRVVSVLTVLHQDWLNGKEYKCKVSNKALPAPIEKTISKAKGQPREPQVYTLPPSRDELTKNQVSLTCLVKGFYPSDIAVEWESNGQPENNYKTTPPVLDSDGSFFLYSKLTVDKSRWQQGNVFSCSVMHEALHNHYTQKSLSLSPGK
assay-method-text: SPR, hIgG1 antibody captured, room temp
assay-readout: T1/2 (h)

binder	test-result
H1H690P (antibody, V domains shown) VH: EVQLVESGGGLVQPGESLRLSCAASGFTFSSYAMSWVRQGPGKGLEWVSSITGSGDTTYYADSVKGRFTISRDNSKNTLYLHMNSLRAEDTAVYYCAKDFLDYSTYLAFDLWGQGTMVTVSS VL: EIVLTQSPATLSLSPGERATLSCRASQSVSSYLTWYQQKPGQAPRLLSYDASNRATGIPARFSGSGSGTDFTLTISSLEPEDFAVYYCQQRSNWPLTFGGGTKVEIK	2.1
H1H693P (antibody, V domains shown) VH: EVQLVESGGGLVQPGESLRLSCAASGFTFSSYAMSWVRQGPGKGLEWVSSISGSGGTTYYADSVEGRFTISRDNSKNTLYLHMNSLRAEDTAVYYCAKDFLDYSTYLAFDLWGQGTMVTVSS VL: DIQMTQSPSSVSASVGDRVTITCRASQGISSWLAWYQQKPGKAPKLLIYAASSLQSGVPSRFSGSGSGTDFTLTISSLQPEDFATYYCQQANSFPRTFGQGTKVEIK	0.618
H1H743N (antibody, V domains shown) VH: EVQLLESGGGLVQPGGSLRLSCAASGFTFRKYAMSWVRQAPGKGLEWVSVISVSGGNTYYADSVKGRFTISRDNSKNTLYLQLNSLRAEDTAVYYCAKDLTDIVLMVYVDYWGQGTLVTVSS VL: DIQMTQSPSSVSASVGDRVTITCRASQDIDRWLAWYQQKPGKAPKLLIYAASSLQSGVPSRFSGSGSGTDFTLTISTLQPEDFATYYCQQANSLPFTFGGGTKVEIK	4.23
H1H730N (antibody, V domains shown) VH: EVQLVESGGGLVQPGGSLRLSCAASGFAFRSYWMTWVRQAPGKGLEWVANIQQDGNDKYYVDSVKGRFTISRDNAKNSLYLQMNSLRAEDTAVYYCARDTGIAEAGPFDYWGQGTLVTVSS VL: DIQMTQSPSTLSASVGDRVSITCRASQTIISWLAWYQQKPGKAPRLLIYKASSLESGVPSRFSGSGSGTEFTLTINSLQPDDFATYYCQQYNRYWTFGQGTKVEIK	1.03
H1H706P (antibody, V domains shown) VH: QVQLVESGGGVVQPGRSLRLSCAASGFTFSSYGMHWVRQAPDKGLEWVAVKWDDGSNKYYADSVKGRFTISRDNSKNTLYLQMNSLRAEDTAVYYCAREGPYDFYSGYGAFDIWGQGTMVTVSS VL: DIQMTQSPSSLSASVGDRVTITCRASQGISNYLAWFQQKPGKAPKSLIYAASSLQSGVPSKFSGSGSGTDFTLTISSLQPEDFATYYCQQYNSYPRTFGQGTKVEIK	0.84
